Test system: RXF 393 renal
Experiment: NCI-60 one-dose screen, 48 h (100 = growth as untreated, 0 = no growth, -100 = all killed)
Conditions: 10 µM unless noted
About 83,000 compounds went through this panel and 20% of them were active in at least one assay; those are over-represented in the sample as a whole.
Respond with 1 for growth values of 80% and above, -1 for values below.

Please review the following examples before continuing.
>>> assigned_category("COc1ccc(NS(=O)(=O)c2ccc(-c3cnc(C4CC4)o3)cc2)cc1")
1
>>> assigned_category("Nc1cc2[nH]c(=O)c3ccccc3c2cc1Br")
1
>>> assigned_category("NS(=O)(=O)c1cc(Br)c2c(c1)S(=O)(=O)NCN2")
1
>>> assigned_category("O=c1oc2ccccc2cc1-c1csc(N/N=C/c2cc3ccccc3nc2Cl)n1")
1
>>> assigned_category("Cc1nc2cc(Nc3nc(Nc4ccc(F)cc4)nc(-c4cccs4)n3)ccc2n1Cc1ccccc1")
-1

(Q) Dear colleague, could you confirm whether COc1ccc(Nc2[nH]n(C3=Nc4ccccc4Sc4ccccc43)c(=O)c2C#N)cc1 has growth at or above 80%?
(A) -1

(Q) Dear colleague, could you confirm whether NC(=O)c1cc(Cl)ccc1NC(=O)COc1ccccc1 has growth at or above 80%?
(A) -1

(Q) Dear colleague, could you confirm whether COc1cc2cc(Oc3ccc(NC(=O)Nc4ccc(Cl)c(C(F)(F)F)c4)cc3)c(C)nc2cc1OCCN1CCCCC1 has growth at or above 80%?
(A) -1

(Q) Dear colleague, could you confirm whether O=C1C(Cl)=C(NCCCN2CCOCC2)C(=O)c2ccccc21 has growth at or above 80%?
(A) 1

* * *

Tested on: RPMI-8226 leukemia
Assay: NCI-60 one-dose screen, 48 h
Details: 10 µM
About 83,000 compounds went through this panel and 20% of them were active in at least one assay; those are over-represented in the sample as a whole. Active and inactive are the calls of the source. How the source made its calls: active means growth percent below 10; inactive means the rest.
Answer with one of the outcomes active, inactive

>>> assigned_category("Cc1nc2ccc(Cl)cc2n1C")
"inactive"

(Q) So what was the verdict on CCC12CCC3c4ccc(O)cc4CCC3C1CC(O)C2O (stereo not drawn) in this test?
(A) inactive

(Q) So what was the verdict on Cc1cc(C)c(S(=O)O)c(C)c1 in this test?
(A) inactive

(Q) So what was the verdict on COc1ccc(Nc2nc(NCCNc3ccnc4cc(Cl)ccc34)nc(N3CCOCC3)n2)cc1 in this test?
(A) inactive

(Q) So what was the verdict on CS(=O)(=O)Nc1cccc(C(=O)NCc2ccc(N3CCOCC3)cc2)c1 in this test?
(A) inactive

(Q) So what was the verdict on CCCCCCCCCCCC(=O)[O][Sn]([CH2]CCC)([CH2]CCC)[CH2]CCC in this test?
(A) active

* * *

System: HCT-15 colon
Assay: NCI-60 one-dose screen, 48 h (100 = growth as untreated, 0 = no growth, -100 = all killed)
Details: 10 µM unless noted
Description: Growth inhibition of the HCT-15 human tumor cell line is measured as a screen for anti-cancer activity. Cells are grown in 96 well plates and exposed to the test compound for 48 hours. Compounds are tested at a single concentration, which is 10^-5 M for most compounds. The reported endpoint is percent growth (GI% or GIPRCNT), where numbers from 0 - 100% represent growth inhibition, and numbers from -100% - 0 represent cell death. For example, a value of 40 represents 60% growth inhibition. […]
The panel holds about 83,000 compounds, 20% with a hit somewhere; the sample as a whole holds those more often.
Each record here notes measured growth.
Respond with the bare value in %.

>>> reported_measurement("Clc1ccc(Nc2nc(Nc3ccccc3)nc(Nc3ccc(-c4cc(-c5ccc(Cl)cc5)on4)cc3)n2)cc1")
43.1
>>> reported_measurement("Cc1ccc(S(=O)(=O)N(c2ccc(Cl)cc2)c2ccc(Br)cc2C(=O)O)cc1")
100
>>> reported_measurement("Clc1ccc(Nc2ccnc(N3CCN(c4ccnc5cc(Cl)ccc45)CC3)n2)cc1")
20.4
>>> reported_measurement("COC(=O)c1ccc(C(=O)Nc2ccccc2N)cc1")
83.9
>>> reported_measurement("C[C@@H](Oc1cc(-c2cnn(C3CC4(CNC4)C3)c2)cnc1N)c1c(Cl)ccc(F)c1Cl")
35.4

(Q) Report growth for N#Cc1c(-c2cccc(F)c2)cc(-c2ccc(Br)s2)[nH]c1=O
(A) 27.2

(Q) Report growth for COc1ccc(-n2c(SCc3cc(OC)c(OC)c(OC)c3)nc3ccc(C)cc3c2=O)c(OC)c1
(A) 23.7

(Q) Report growth for Cc1cc(=O)[nH]n1-c1cc(Cl)ccc1N
(A) 92.4

(Q) Report growth for COc1cccc(C2C3=C(COC3=O)N(CCO)c3cc4c(cc32)OCO4)c1 (stereo not given)
(A) 18.2

(Q) Report growth for Cc1nc2nc(C(F)(F)F)[nH]c2nc1C
(A) 111

* * *

Tested on: SR leukemia
Assay: NCI-60 one-dose screen, 48 h
Details: 10 µM unless noted
The panel holds about 83,000 compounds, 20% with a hit somewhere; the sample as a whole holds those more often. The source made the active and inactive calls. The calls were made as follows: active = growth percent below 10; inactive = the rest.
Answer with one of the outcomes active, inactive

Please review the following examples before continuing.
>>> assigned_category("CC(C)OC1=C(Cl)C(=O)c2ccccc2C1=O")
"active"
>>> assigned_category("O=C1Nc2ccc(Cl)cc2/C1=N/N=C(c1ccccc1)c1ccccc1")
"inactive"
>>> assigned_category("Cc1ccc(C)c2c1sc1nc3nc4sc5ccccc5n4c(=N)c3c(=O)n12")
"inactive"
>>> assigned_category("COc1cc(-c2nc3ccccc3o2)cc(CN2CCN(c3ccccc3)CC2)c1O")
"inactive"
>>> assigned_category("O=C1c2ccccc2C(=O)c2c(Nc3ccc(CCO)cc3)ccc(O)c21")
"active"

For the next question, use this molecule.
(Q) So what was the verdict on CN1CCC(OC2c3ccccc3CCc3ccccc32)CC1 in this test?
(A) inactive

* * *

Test system: SK-OV-3 ovarian
Experiment: NCI-60 one-dose screen, 48 h (100 = growth as untreated, 0 = no growth, -100 = all killed)
Conditions: 10 µM
The panel holds about 83,000 compounds, 20% with a hit somewhere; the sample as a whole holds those more often. The source made the active and inactive calls. The calls were made as follows: active = growth percent below 10; inactive = the rest.
Each record here notes measured growth.

>>> reported_measurement("N#Cc1ccc(C(F)(F)F)nc1N1CCC(C(=O)Nc2ccc(Cl)cc2)CC1")
"82.5% (inactive)"
>>> reported_measurement("COc1nc2c(cc1S(=O)(=O)c1ccccc1)CCc1c-2cnn1-c1ccccc1Cl")
"85.7% (inactive)"
>>> reported_measurement("COc1ccc(CSc2nc3cc(OC)c(OC)cc3c(=O)n2-c2ccc(Cl)cc2)cc1")
"105% (inactive)"
>>> reported_measurement("O=[N+]([O-])c1cc2c(cc1Br)C1C(C3C2C(Cl)(Cl)C(Cl)=C(Cl)C3(Cl)Cl)C(Cl)(Cl)C(Cl)=C(Cl)C1(Cl)Cl (centres undefined)")
"101% (inactive)"
>>> reported_measurement("C=C[C@H]1C[C@@H]2C[C@@H]3[C@H]4C/C=C\\C(=O)NCCCC5NC(=O)C(=C(O)/C=C/[C@@H]4CC(=O)[C@H]3[C@@H]2[C@H]1C)C5=O (some centres undefined)")
"-100% (active)"
>>> reported_measurement("CCOc1ccc(/C=N\\N2CCCCCC2)cc1OCC")
"91.6% (inactive)"
>>> reported_measurement("CCCCC(CCCC)(S(=O)(=O)CC)S(=O)(=O)CC")
"105% (inactive)"
>>> reported_measurement("COC(=O)C1C2CC3c4[nH]c5cc(OC)ccc5c4CCN3CC2CC(OC2CCCCO2)C1OC (centres undefined)")
"101% (inactive)"

(Q) Report growth for O=C1C=CC(=O)N1CCCCCCCCCCN1C(=O)C=CC1=O
(A) 126% (inactive)

* * *

Test system: NCI/ADR-RES ovarian
Test: NCI-60 one-dose screen, 48 h (100 = growth as untreated, 0 = no growth, -100 = all killed)
Conditions: 10 µM unless noted
Compounds without any hit were thinned out: in the full panel of roughly 83,000, 20% have a hit.
MEASUREMENT LABEL: growth (%)
Respond with the bare value in %.

>>> reported_measurement("O=C1c2c(c3c4cc(Br)ccc4[nH]c3c3ccc4ccccc4c23)C(=O)N1O")
98.1
>>> reported_measurement("c1ccc(-c2n(Cc3ccc4ccccc4c3)c3ccccc3[n+]2Cc2ccc3ccccc3c2)cc1")
46.4
>>> reported_measurement("O=C1CC(c2ccsc2)c2snc(-c3ccc(Cl)cc3)c2N1 (stereo unspecified)")
16.8
>>> reported_measurement("Nc1c(Br)cc(Br)cc1-c1n[nH]c(=O)[nH]c1=O")
103
>>> reported_measurement("COC(=O)/C=C1/CCC2C3CCC4=CC(=O)C(Br)CC4(C)C3C(=O)CC12C (stereo unspecified)")
81.7

(Q) Report growth for CN1CCN(c2nc(-c3ccncc3)nc3sc4c(c23)CCCCCC4)CC1
(A) 64.9

(Q) Report growth for O=C(CCc1nnc2sc(-c3ccccc3)nn12)c1nc2ccccc2[nH]1
(A) 92.5

(Q) Report growth for COc1ccc(/C=C2\CN(Cc3cn(CCCNc4ccnc5cc(Cl)ccc45)nn3)C/C(=C\c3ccc(OC)c(OC)c3)C2=O)cc1OC
(A) 94.4

(Q) Report growth for CSc1ccc(OC(C)=O)cc1C
(A) 103

(Q) Report growth for COc1ccc(S(=O)(=O)c2ccc(C(N)=O)cc2)cc1NC(=O)c1[nH]c(C)c2c1CCCCC2=O
(A) 105

(Q) Report growth for COc1cc(-c2nc(SC(C)C)nc(Nc3ccccc3C)c2C#N)cc(OC)c1OC
(A) 109

(Q) Report growth for O=C(Nc1ccc(F)cc1)c1ccc(C(=O)Nc2ccc(F)cc2)cc1
(A) 116

(Q) Report growth for CCOC(=O)c1sc(NC(=O)CN2CCC(Cc3ccccc3)CC2)nc1C
(A) 94.1

(Q) Report growth for FC(F)(F)Oc1ccc2c(c1)C[C@H]1C[C@@H](c3ccoc3)N2O1
(A) 98.3

(Q) Report growth for CCOC(=O)c1c(Cl)c2c(n1Cc1cc(OC)cc(OC)c1)-c1oncc1CCC2
(A) 8.44
